# procedure-summary: in vitro
# condition: male, BPHL knock-out, mouse, tissue homogenate, pH 6
value-type: half-life (h)
I only need the number, in h, no unit after it.

Looking for the measured half-life of `CC(C)[C@H](N)C(=O)OCCOCn1cnc2c(=O)[nH]c(N)nc21` , can you help?
3.12

---

# procedure-summary: In situ single-pass intestinal perfusion
# condition: male, BALB/c, mouse, other: in situ single-pass intestinal (jejunal) perfusion, pH 6
value-type: Papp at 1.5 h, 0.1 mM (nm/s)
I only need the number, in nm/s, no unit after it.

Looking for the measured Papp at 1.5 h, 0.1 mM of COCCc1ccc(OCC(O)CNC(C)C)cc1 (stereo not shown) , can you help?
538
